Experiment: reduced mouse 2C T cell binding to pMHC/ICAM-1 vesicles – MLPCN validation set, flow cytometry, LFA-1/ICAM-1 modulator project, pilot screen (AID 2523)
Settings: 2C mouse CD8+ T cells, at 7 µM, stronger effect = lower value; measured here: CD8+/vesicle+ event percentage
measurement label: double positive events (%)
Just the number please, in %, no unit attached.

In the examples that follow, each entry is paired with its recorded double positive events.
Record "CCCCN(CCCC)CCCOC(=O)c1ccc(N)cc1" . Reported double positive events: 64.8

Measured double positive events, Cc1ccc2c(c1)C1CN(C)CCC1N2S(=O)(=O)c1ccc(Oc2ccc([N+](=O)[O-])cc2)cc1 (stereo not given) : 56.7

For reference, reported double positive events for "Cn1c(=O)c(C(=O)NCCO)c(O)c2ccccc21" stands at 60.8

Recorded double positive events (molecule "CCCCCC(=O)O[C@]1(C(C)=O)CC[C@H]2[C@@H]3CCC4=CC(=O)CC[C@]4(C)[C@H]3CC[C@@]21C" ): 60

Others:
What the record says about "CN(C)C(=O)Oc1ccc[n+](C)c1" : double positive events is 62.3

* * *

Test: TOR pathway RTG branch CIT2 reporter changes – S. cerevisiae, GFP fusion, multiplex flow cytometry, primary screen (AID 1870);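 further: barcoded CIT2-GFP strain pooled with four other GFP strains with rapamycin as positive control; median GFP fluorescence per well over plate mean of DMSO wells so 100% = DMSO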
Settings: S. cerevisiae CIT2-GFP expression, 3 h, at 10 µM, stronger effect = higher value
measurement label: percent response of DMSO control (%)
Write down the numeric answer in % and omit the unit.

Consider "Cc1ccc(N2CCN(C(=S)c3ccc(-c4cccc([N+](=O)[O-])c4)o3)CC2)cc1" . Its measured percent response of DMSO control is 109

Record "COc1ccc(C2C3=C(CC(C)(C)CC3=O)N(C)C3=C2C(=O)CC(C)(C)C3)cc1" . Reported percent response of DMSO control: 88

---
Lab note: "CC(=O)c1cccc2c(O)c(C3=Nc4ccccc4C3=O)[nH]c12" gave percent response of DMSO control of 114

Sample O=C(O)C1Cc2ccccc2CN1S(=O)(=O)c1ccccc1 (stereo unspecified) ; percent response of DMSO control observed: 92.9

For this molecule ( Nc1nc(SCc2ccc([N+](=O)[O-])cc2)c2ncn(C3OC(CO)C(O)C3O)c2n1 (stereo unspecified) ), measured percent response of DMSO control is 106

Measured percent response of DMSO control of "O=C(O)c1cnccn1" : 93.8

Sample "CCC(=O)c1ccc(OCc2ccc(C(=O)OC)cc2)cc1" ; percent response of DMSO control observed: 106

Lab book: percent response of DMSO control of "CCCCCC#CCC#CCC#CCC#CCCCC(=O)O" noted as 103

The recorded percent response of DMSO control for Cc1ccccc1NC(=O)C1(C)Cc2ccccc2C(=O)O1 (stereo unspecified) is 92.9

Record NS(=O)(=O)c1cc2c(cc1Cl)NC(C(Cl)Cl)NS2(=O)=O (stereo unspecified) . Reported percent response of DMSO control: 102

Input "COc1ccc(NC2=C(Cl)C(=O)N(c3ccccc3)C2=O)c(OC)c1" . Output percent response of DMSO control: 107

* * *

Tested on: anti-desmoglein-3 scFv antibody binding to human DSG3
Test: blockers of pathogenic pemphigus antibody–desmoglein-3 binding – biochemical, validation compound set, bead-based, flow cytometry, pilot screen (AID 588368);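 further: signal is the median channel fluorescence of bead-bound GFP antibody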
Conditions: Protein G beads, DSG3-Fc, scFv-GFP binding, at 10 µM, stronger effect = lower value
Measured binding (% of control), listed per entry.
Give just the numeric value; % need not be written.

Lab note: CC(C)OC(=O)C1C2C=CC3(CN(CC4CCCO4)C(=O)C13)O2 (stereo unspecified) gave binding (% of control) of 98

Looking up "CC1=NN(c2ccccc2)C(=O)C1" , I see its binding (% of control) listed as 101

For reference, reported binding (% of control) for O=C1OC(Nc2ccc3c(c2)OCO3)c2ccccc21 (stereo unspecified) stands at 100

Kindly note the recorded binding (% of control) for "CCOCC(=O)Nc1ccccc1C(=O)N1CCOCC1" , which is 100

// sample "O=C(CS(=O)(=O)c1ccccc1)c1ccc2c(c1)OCCO2" , its binding (% of control) was 103

Consider now this further compound.
Entry CC(=O)N1CCN2C(=O)C1CCCC(=O)c1cc(C(C)C)ccc12 (stereo unspecified) — recorded binding (% of control) = 103

* * *

Below: a set of entries, each annotated with reported differentiation response.
Experiment: AML differentiation inducers, ER-HoxA9 marrow cells – cell-based, GFP/MAC1 double positive, flow cytometry, validation set, primary screen (AID 588685);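 further: compound exposure lasts four days before antibody staining and flow analysis; 0% = DMSO wells and 100% = 5 µM fulvestrant positive control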
Details: stronger effect = higher value, normalized: vehicle 0, fulvestrant 100
Please give a number only; it is taken to be in %.

Examples from the recorded data:
Entry under test: CC1(C)C(=O)OC(/C=C\c2ccccc2)C(C)(C)C1=O (stereo unspecified) . Its differentiation response was 4.86

differentiation response recorded for this compound, "O=C(CCCn1c(=O)oc2ccccc21)N1CCN(c2ccc(F)cc2)CC1" , is -26.4

differentiation response reading for "O=C(c1ccco1)N1CCCN(Cc2nc(-c3ccc4c(c3)OCO4)no2)CC1" : -11.5

// differentiation response lookup, compound = "Nc1ccc(S(N)(=O)=O)cc1N" , result: 2.46

Recorded result, CCOC(=O)C1C(=O)OC2(CCOC(C)(C)C2)C1C(=O)OCC (stereo unspecified) , differentiation response: -4

Let's switch to this compound now.
Value of differentiation response reported for the compound "COc1cc(CNc2nnnn2C)ccc1OCc1ccc(F)cc1Cl" is -5.68

* * *

Experiment: calorie-restriction mimetic ROS inhibitors, yeast – validation compound set, pilot screen (AID 2706);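 further: yeast exposed to compound for one week at 30 degrees C before staining; 100% = mean of all compound wells on the same plate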
Details: S. cerevisiae aging, superoxide DHE fluorescence; at 10 µM; stronger effect = lower value
measurement label: superoxide response (% of plate) (%)
Answer in %, number only, no unit symbol.

Below, 5 compounds whose answers are already recorded.
The reported superoxide response (% of plate) of the compound "O=C(O)CCC(=O)c1ccc(-c2ccccc2)cc1" was 99.8

superoxide response (% of plate) measured on "O=c1[nH]c(=O)n([C@H]2C[C@H](O)[C@@H](CO)O2)cc1C(F)(F)F" = 108

Sample COc1ccccc1OCC(O)COC(N)=O (configuration not stated) ; superoxide response (% of plate) observed: 101

Entry under test: CCCCCCCCCC(=O)OCC(O)CO (configuration not stated) . Its superoxide response (% of plate) was 116

compound "CC1(C)CC(=O)C(C2=NC(C)(C)Cc3ccccc32)=C(O)C1" , superoxide response (% of plate) observed: 103

Others:
Consider Cc1ccc2nc(C)c3c(c2c1)OC(C(C)(Cl)Br)C3 (configuration not stated) . Its measured superoxide response (% of plate) is 94.8

response.value for Cc1c(OCC(F)(F)F)ccnc1CS(=O)c1nc2ccccc2[nH]1 (configuration not stated) (field: superoxide response (% of plate)) = 111

Quick note, superoxide response (% of plate) for "O=C(NCc1ccc2c(c1)OCO2)c1ccc2c(c1)OCCO2" landed at 104

// "COc1ccc(CN2CCC(=O)NC2=O)cc1" : superoxide response (% of plate) value = 101

# superoxide response (% of plate) of "CC(=O)N1c2ccccc2C(C)=CC1(C)C" = 112

* * *

Molecular target: Integrin beta-1 (Homo sapiens) + Integrin alpha-4 (Homo sapiens) (UniProt P13612+P05556)
Sequence (P05556 whole entry, looked up): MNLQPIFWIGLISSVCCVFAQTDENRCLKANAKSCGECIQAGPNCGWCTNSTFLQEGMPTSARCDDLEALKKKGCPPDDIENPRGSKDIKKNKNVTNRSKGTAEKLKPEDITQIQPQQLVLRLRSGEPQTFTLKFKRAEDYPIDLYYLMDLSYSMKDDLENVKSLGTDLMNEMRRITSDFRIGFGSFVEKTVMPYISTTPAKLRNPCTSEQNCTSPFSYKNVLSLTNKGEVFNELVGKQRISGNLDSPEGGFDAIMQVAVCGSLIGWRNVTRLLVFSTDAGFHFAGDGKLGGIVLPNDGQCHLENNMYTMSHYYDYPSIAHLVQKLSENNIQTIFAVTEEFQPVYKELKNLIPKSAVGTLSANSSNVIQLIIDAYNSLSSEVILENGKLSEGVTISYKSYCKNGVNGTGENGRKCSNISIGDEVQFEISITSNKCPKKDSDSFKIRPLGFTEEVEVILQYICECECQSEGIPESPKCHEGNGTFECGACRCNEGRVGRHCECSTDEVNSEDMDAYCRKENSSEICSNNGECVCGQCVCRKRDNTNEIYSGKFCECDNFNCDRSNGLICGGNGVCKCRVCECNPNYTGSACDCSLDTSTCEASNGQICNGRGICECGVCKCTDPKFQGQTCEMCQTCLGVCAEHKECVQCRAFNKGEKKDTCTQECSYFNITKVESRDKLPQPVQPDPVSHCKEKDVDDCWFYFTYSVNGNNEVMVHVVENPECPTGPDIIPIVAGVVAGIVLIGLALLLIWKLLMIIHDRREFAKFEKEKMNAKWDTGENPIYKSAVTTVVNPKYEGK
Sequence (P13612 whole entry, looked up): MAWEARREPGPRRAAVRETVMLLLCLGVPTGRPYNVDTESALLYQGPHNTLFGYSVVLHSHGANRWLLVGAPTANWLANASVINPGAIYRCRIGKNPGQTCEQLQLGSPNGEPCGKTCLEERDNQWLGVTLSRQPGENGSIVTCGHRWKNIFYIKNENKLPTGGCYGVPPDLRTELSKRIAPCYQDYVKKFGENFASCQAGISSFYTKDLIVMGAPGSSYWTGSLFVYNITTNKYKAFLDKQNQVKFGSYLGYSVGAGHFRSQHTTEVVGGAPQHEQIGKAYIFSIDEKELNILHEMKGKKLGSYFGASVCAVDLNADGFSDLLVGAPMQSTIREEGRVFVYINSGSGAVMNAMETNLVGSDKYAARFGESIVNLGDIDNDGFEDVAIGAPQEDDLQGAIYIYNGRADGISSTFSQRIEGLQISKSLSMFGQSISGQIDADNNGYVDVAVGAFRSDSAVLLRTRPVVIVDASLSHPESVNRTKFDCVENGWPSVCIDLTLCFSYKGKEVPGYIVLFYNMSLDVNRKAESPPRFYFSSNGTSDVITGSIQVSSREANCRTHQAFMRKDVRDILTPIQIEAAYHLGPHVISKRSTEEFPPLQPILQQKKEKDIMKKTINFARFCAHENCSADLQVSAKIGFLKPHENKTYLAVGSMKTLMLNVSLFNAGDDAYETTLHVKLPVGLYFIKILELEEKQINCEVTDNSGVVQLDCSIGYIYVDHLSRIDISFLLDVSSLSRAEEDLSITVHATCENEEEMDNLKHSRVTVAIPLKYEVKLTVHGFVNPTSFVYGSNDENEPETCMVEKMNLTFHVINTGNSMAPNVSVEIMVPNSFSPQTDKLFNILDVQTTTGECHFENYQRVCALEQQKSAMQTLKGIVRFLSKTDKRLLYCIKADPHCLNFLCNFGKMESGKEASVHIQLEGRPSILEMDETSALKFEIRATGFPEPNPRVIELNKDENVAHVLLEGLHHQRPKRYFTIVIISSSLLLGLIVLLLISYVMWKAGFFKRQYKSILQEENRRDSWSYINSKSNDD
Assay: alpha4beta1 integrin LIBS antibody binding reduction – U937 cells, HUTS-21 mAb, flow cytometry, validation set, VLA-4 allosteric modulator project, pilot screen (AID 2674);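 further: antibody binding induced by the VLA-4 ligand LDV present at three times its Kd; 0% = LDV ligand with antibody and no compound and 100% = antibody without LDV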
Settings: HUTS-21 LIBS mAb binding, at 6.7 µM, stronger effect = higher value, binding induced by LDV ligand
Each entry below carries its recorded inhibition.
Give the value in % but do not write % after it.

Solved entries:
For this compound ( "CC(=O)N[C@@H](CS)C(=O)O" ), measured inhibition is -3.16

The compound identified as NC(CO)C(=O)NNCc1ccc(O)c(O)c1O (stereo unspecified) registered its inhibition at 13.7

The compound "COc1ccc(/C=C/C(=O)c2cc3cccc(OC)c3oc2=O)cc1" showed inhibition equal to -11.8

The recorded inhibition for OC(CCN1CCCC1)(c1ccccc1)C1CCCCC1 (stereo unspecified) is 0.64

GET /value?item= "O=C(O)c1ccc(-c2ccc(O)c(F)c2)cc1" &field=inhibition returns -1.49

Memo: CCn1c(C)cc2c(c1=O)C(c1ccccc1)C(C(=O)OC)=C(N)O2 (stereo unspecified) , reported inhibition: 18.5

New cases:
Item: "O=C1CN(O)C=C2N=c3ccccc3=C2N1c1ccc([N+](=O)[O-])cc1" | inhibition: -17.2

inhibition measured on "COc1ccc(NS(=O)(=O)c2ccc(N)cc2)nn1" = 5.03

Summary for this compound, "S=C(NCc1ccccc1)NCc1cccc(CNC(=S)NCc2ccccc2)c1" : inhibition is 9.1

* * *

Known inhibition of a selection of molecules
Biological target: Integrin beta-1 (Homo sapiens) + Integrin alpha-4 (Homo sapiens) (UniProt P13612+P05556)
Test: alpha4beta1 integrin LIBS antibody binding reduction – U937 cells, HUTS-21 mAb, flow cytometry, validation set, VLA-4 allosteric modulator project, pilot screen (AID 2674);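 further: antibody binding induced by the VLA-4 ligand LDV present at three times its Kd; 0% = LDV ligand with antibody and no compound and 100% = antibody without LDV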
Details: HUTS-21 LIBS mAb binding, at 6.7 µM, stronger effect = higher value, binding induced by LDV ligand
Please reply with the bare figure in % and do not write the unit itself.

Please review the following examples before continuing.
Value of measured inhibition for the entry "COc1cc(CO)ccc1OCc1nnnn1-c1ccc(C)cc1" : 2.93

Entry "CC(C)=CCC/C(C)=C/CC/C(C)=C/CC/C(C)=C/CC1=C(C)C(=O)c2ccccc2C1=O" , inhibition reported as -7.08

// inhibition value for "Cc1coc2cc3oc(=O)c(CCC(=O)O)c(C)c3cc12" : -11.3

GET /value?item= COc1ccc2[nH]c3c(=O)n(/N=C/[C@H]4C(C)C=C(C)CC4C)c(=O)[nH]c3c2c1 (stereo partly specified) &field=inhibition returns 6.4

The molecule listed as C1CCC(C(CC2CCCCN2)C2CCCCC2)CC1 (stereo unspecified) shows inhibition equal to -17.3

Query molecule follows.
Recorded result, CN1CCN2c3ccccc3Cc3ccccc3C2C1 (stereo unspecified) , inhibition: 8.4
